system: Staphylococcus aureus; assay: Antibacterial activity against Staphylococcus aureus ATCC 29213; format: functional
MEASURED PARAMETER: MIC (µg/mL)

SMILES	VALUE COMPARATOR	REPORTED RESULT
CC(=O)NC[C@H]1CN(c2cc(F)c3c(c2)N(C)C[C@@H]2CCCN32)C(=O)O1	>	32
CNC(=S)NC[C@H]1CN(c2cc(F)c3c(c2)SC[C@@H]2CCCN32)C(=O)O1	=	2
C/C(S)=N/C[C@H]1CN(c2cc(F)c3c(c2)SC[C@@H]2CCCN32)C(=O)O1	=	0.5
CC(=O)NC[C@H]1CN(c2ccc3c(c2)OC[C@@H]2CCCN32)C(=O)O1	=	8
CC(=O)NC[C@H]1CN(c2ccc3c(c2)S(=O)(=O)C[C@@H]2CCCN32)C(=O)O1	>	32
CC(=O)NC[C@H]1CN(c2ccc3c(c2)N(C(=O)CCl)C[C@@H]2CCCN32)C(=O)O1	>	256
CC(=O)NC[C@H]1CN(c2ccc3c(c2)N(C(=O)OCc2ccccc2)C[C@@H]2CCCN32)C(=O)O1	>	32
CC(=O)NC[C@H]1CN(c2ccc3c(c2)SC[C@@H]2CCCN32)C(=O)O1	=	8
COC(=S)NC[C@H]1CN(c2cc(F)c3c(c2)SC[C@@H]2CCCN32)C(=O)O1	=	1
COC(=S)NC[C@H]1CN(c2cc(F)c3c(c2)N(C)C[C@@H]2CCCN32)C(=O)O1	>	32
CC(=O)NC[C@H]1CN(c2ccc3c(c2)N(C(C)=O)C[C@@H]2CCCN32)C(=O)O1	>	256
CC(=O)NC[C@H]1CN(c2cc(F)c3c(c2)SC[C@@H]2CCCN32)C(=O)O1	=	2
COC(=S)NC[C@H]1CN(c2ccc3c(c2)SC[C@@H]2CCCN32)C(=O)O1	=	0.5
CC(=O)NC[C@H]1CN(c2ccc3c(c2)N(C=O)C[C@@H]2CCCN32)C(=O)O1	>	256
